Consider compounds characterized by their IC50 with UniProt:P23458.
Sequence (P23458 whole entry, species assumed): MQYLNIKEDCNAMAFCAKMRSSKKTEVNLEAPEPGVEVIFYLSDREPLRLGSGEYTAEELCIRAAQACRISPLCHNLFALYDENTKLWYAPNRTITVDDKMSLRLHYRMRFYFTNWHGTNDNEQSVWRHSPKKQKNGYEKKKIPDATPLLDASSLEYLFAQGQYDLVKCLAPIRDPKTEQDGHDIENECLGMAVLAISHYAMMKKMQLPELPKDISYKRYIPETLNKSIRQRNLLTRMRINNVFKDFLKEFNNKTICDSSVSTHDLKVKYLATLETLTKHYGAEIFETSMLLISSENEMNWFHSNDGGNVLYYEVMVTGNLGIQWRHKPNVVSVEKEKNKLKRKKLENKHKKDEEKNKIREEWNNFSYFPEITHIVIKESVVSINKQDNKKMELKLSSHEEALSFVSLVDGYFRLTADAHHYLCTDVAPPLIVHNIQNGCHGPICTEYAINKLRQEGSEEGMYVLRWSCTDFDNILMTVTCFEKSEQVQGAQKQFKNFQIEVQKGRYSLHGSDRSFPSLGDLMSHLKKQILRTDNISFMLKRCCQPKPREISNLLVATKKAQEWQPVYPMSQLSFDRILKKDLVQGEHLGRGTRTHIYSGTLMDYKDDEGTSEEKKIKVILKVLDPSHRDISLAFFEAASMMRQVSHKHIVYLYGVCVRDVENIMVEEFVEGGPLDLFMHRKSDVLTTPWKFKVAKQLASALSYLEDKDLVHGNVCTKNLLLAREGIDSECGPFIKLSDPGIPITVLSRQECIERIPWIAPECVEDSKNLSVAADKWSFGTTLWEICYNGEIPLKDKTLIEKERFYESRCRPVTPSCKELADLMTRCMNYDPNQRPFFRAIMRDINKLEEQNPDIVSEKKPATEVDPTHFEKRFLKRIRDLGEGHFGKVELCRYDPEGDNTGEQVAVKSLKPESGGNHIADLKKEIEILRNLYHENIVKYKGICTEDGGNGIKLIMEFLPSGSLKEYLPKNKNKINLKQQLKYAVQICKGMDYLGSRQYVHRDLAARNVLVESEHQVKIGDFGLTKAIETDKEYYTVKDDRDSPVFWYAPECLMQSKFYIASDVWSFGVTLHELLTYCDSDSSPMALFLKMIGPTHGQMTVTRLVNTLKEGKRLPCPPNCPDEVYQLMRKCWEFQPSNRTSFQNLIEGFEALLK

Some compounds with known IC50 results, for comparison:
> print(dat)
                                   compound  readout     result
1  Cc1cc(Nc2ncc(C)c(N3CC(CC#N)(N4CCn5cccc5C4)C3)n2)sn1 [E90a]     IC50  < 0.01 µM
2  Cc1cc(Nc2ncc(C)c(N3CC(CC#N)(N4CCN(C5CCC5)CC4)C3)n2)sn1 [E64a]     IC50  < 0.01 µM
3  Cc1cnc(Nc2cnn(C)c2)nc1N1CC(N2CCN3C[C@H](F)C[C@H]3C2)C1 [E169a]     IC50  < 0.25 µM
4  Cc1cc(Nc2ncc(C)c(N3CC(CC#N)(N4CCn5cncc5C4)C3)n2)sn1 [E93a]     IC50  < 0.01 µM
5  Cc1cc(Nc2ncc(C)c(N3CC(CC#N)(N4CCN5C[C@@H](F)C[C@@H]5C4)C3)n2)sn1 [E70a]     IC50  < 0.02 µM
6  Cc1cc(Nc2ncc(C)c(N3CC(CC#N)(N4CCN5CCC[C@@H]5C4)C3)n2)sn1 [E61a]     IC50  < 0.05 µM
7  Cc1cc(Nc2ncc(C)c(N3CC(N4CCN5C[C@H](F)C[C@H]5C4)C3)n2)sn1 [E110a]     IC50  < 0.05 µM
8  Cc1cc(Nc2ncc(C)c(N3CC(CC#N)(N4C[C@H](C)N(C)[C@@H](C)C4)C3)n2)sn1     IC50  < 0.05 µM

# input May I ask what IC50 has been recorded for Cc1cc(Nc2ncc(C)c(N3CC(CC#N)(N4CC5CN(C)CC5C4)C3)n2)sn1 (centres unmarked) [E105a] ?
# output < 0.1 µM

# input GET /values?readout=IC50&item= CCC1(N2CCN3C[C@H](F)C[C@H]3C2)CN(c2nc(Nc3cnn(C)c3)ncc2C)C1 [E170a]
# output < 0.05 µM

# input Record request: IC50 value, item `Cc1cc(Nc2ncc(C)c(N3CC(CC#N)(N4CC(N(C)C)C4)C3)n2)sn1`
# output < 0.15 µM

# input # IC50 lookup, item `Cc1cnc(Nc2cnn(C)c2)nc1N1CC(O)(CC2CC2)C1`
# output < 0.2 µM

# input Which IC50 value is on record for `Cc1cc(Nc2ncc(C)c(N3CC(CC#N)(N4CCOCC4)C3)n2)sn1` ?
# output < 0.01 µM

# input Which IC50 value is on record for Cc1cnc(Nc2cnn(C)c2)nc1N1CC(CC#N)(N2CCN3CCCC[C@@H]3C2)C1 [E159a] ?
# output < 0.12 µM

# input Quick one: IC50 of Cc1cc(Nc2ncc(C)c(N3CC(CC#N)(N4CCN5CCC[C@]5(C)C4)C3)n2)sn1 [E83a] ?
# output < 0.1 µM

# input Entry Cc1cc(Nc2ncc(C)c(N3CC(CC4CC4)C3)n2)sn1 [E109a] : reported IC50 = ?
# output < 0.05 µM

# input Can you look up the measured IC50 of `CCS(=O)(=O)NC1(CC#N)CN(c2nc(N(c3cc(C)ns3)S(=O)(=O)CC)ncc2C)C1` for me?
# output < 5 µM

# input // returns reported IC50 for input CCOC(=O)CC1(N2CCCCC2)CN(c2nc(Nc3cc(C)ns3)ncc2C)C1 [E65a]
# output < 1 µM

# input Could you tell me which IC50 is on file for Cc1cc(Nc2ncc(C)c(N3CC(CC#N)(N4CCN5CCN(C)CC5C4)C3)n2)sn1 (centres unmarked) [E73a] ?
# output < 0.1 µM

# input Could you tell me which IC50 is on file for `Cc1cnc(Nc2ccc3c(c2)CN(C)C3)nc1N1CC(CC(F)F)(C2CC2)C1` ?
# output < 0.01 µM

# input What value of measured IC50 is listed for Cc1cc(Nc2nccc(N3CC(CC#N)(N4CCN5C[C@H](F)C[C@H]5C4)C3)n2)sn1 [E97a] ?
# output < 0.05 µM

# input Dear colleague, I am looking for the recorded IC50 of the following compound: Cc1cc(Nc2ncc(C)c(N3CC(CC#N)(N4CC5(C4)CC5(F)F)C3)n2)sn1 [E88a]
# output < 0.01 µM

# input Recorded IC50 of Cc1cc(Nc2ncc(C)c(N3CC(CC#N)(OC4CC5(C4)CC5(F)F)C3)n2)sn1 (centres unmarked) [E106a] , please.
# output < 0.01 µM

# input // IC50 lookup, key: Cc1cnc(Nc2cnn(C)c2)nc1N1CC(CC(F)F)(C2CC2)C1 [E165a]
# output < 0.01 µM

# input Using the record for Cc1cc(Nc2ncc(C)c(N3CC(CCO)(N4CCCCC4)C3)n2)sn1 [E66a] , report its IC50.
# output < 0.05 µM
